Tested on: HCV replicon genotype 1a
experiment: microbe, parasite or virus in culture
Type: cell-based
condition.notes: genotype 1a replicon cells, incubated 96 hours, NS3/4A ELISA readout
pIC50: −log10 of the molar value.
assay.metric: pIC50

# compound, target.entity, measurement
data = [
    ("CNC(=O)c1c(-c2ccc(F)cc2)oc2cc(N(C)S(C)(=O)=O)c(-c3cc4c(cn3)OC(CO)n3c-4cc4c(F)cccc43)cc12 (stereo not drawn) [Compound 89]", "HCV replicon genotype 1a", 8.96),
    ("CNC(=O)c1c(-c2ccc(F)cc2)oc2cc(N(C)S(C)(=O)=O)c(-c3ccc4c(n3)-c3cc5c(F)cccc5n3C(CNC(=O)[C@@H]3CCCN3C(=O)OC)O4)cc12 (stereo partly drawn) [Compound 126]", "HCV replicon genotype 1a", 8.57),
    ("CNC(=O)c1c(-c2ccc(F)cc2)oc2cc(N(C)S(C)(=O)=O)c(-c3cc4c(cn3)OC(CO)n3c-4cc4c(F)cccc43)cc12 (stereo not drawn) [Compound 90]", "HCV replicon genotype 1a", 8.26),
    ("CNC(=O)c1c(-c2ccc(F)cc2)oc2cc(N(CC(C)O)S(C)(=O)=O)c(-c3ccc4c(n3)-c3cc5c(F)cccc5n3CO4)cc12 (stereo not drawn)", "HCV replicon genotype 1a", 8.54),
    ("CCNC(=O)C1Oc2ccc(-c3cc4c(C(=O)NC)c(-c5ccc(F)cc5)oc4cc3N(C)S(C)(=O)=O)nc2-c2cc3c(F)cccc3n21 (stereo not drawn) [Compound 108]", "HCV replicon genotype 1a", 7.85),
    ("CNC(=O)c1c(-c2ccc(F)cc2)oc2cc(N(C)S(C)(=O)=O)c(-c3ccc4c(n3)-c3cc5c(F)cccc5n3C(CO)O4)cc12 (stereo not drawn)", "HCV replicon genotype 1a", 8.57),
]

Data origin: patent US9265773B2
